tested on: HCT-116 colon; test: NCI tumour cell line growth inhibition, 48 h
Please go through the items and note down their TGI.

Entry COC(=O)C(Cc1nc2ccc(Cl)cc2[nH]c1=O)/C(=N\N)C(=O)Nc1cc(C)c(Cl)cc1S(=O)(=O)O (stereo not drawn) has what TGI?
> 100 µM

Item under review: Oc1cccnc1[Se] . Reported TGI?
> 100 µM

Which TGI reading was recorded for the molecule CCCN1C(=O)N(CCC)C2C1NC(=S)N2/N=C/C=C/c1ccccc1OC (stereo not drawn) ?
> 100 µM

Recorded TGI for Cn1cc(-c2csc(-c3c[nH]c4ccc(F)cc34)n2)c2cnccc21 , please?
2.56 µM

Returns the measured TGI for the input molecule. Input: CC(CO)(CO)N1C(=O)C2C3C=CC(C3)C2C1=O (stereo not drawn)
> 100 µM

Looking for the measured TGI of CN=C1CC2c3cc(OC)c(OC)cc3CCN2C2=C1C(=O)CC(C)(C)C2 (stereo not drawn) , can you help?
> 100 µM

Need TGI of O=C(Nc1ccncc1)C(=O)c1cn(S(=O)(=O)c2ccc(F)cc2)c2ccccc12 , thanks.
34.1 µM

Data request, read-out TGI, for CCOC1OC(=O)c2cc3ccc4c(c3c(-c3ccc5c(c3)OCO5)c21)OCO4 (stereo not drawn)
18.6 µM

Which measured TGI value corresponds to CN(C)CCCC12CCCCC1=Nc1ccccc12 (stereo not drawn) ?
> 100 µM

Given CCN1CCC(O)(c2ccc(OC)cc2)C(C(=O)c2ccc(OC)cc2)C1 (stereo not drawn) , state its recorded TGI.
52.4 µM

Would you kindly share the measured TGI for COc1cccc2c1C(=O)c1c(O)c3c(c(O)c1C2=O)C[C@](O)(C(=O)CO)C[C@H]3O[C@@H]1C[C@@H](NC(=O)CCCCCN(C)C2(c3ccc(F)cc3)CC3CCC2C3)[C@H](O)[C@@H](C)O1 (stereo partly drawn) ?
1.51 µM

Report TGI for COC(=O)c1cc2ccc(N)nc2[nH]c1=O please.
> 100 µM

What does the record list as TGI for N#Cc1c(-c2ccc(Cl)cc2Cl)nc2[nH][nH]c(=S)n2c1=O ?
> 100 µM

Please look up its TGI: N#Cc1c(N)nc2n[nH]c(N)c2c1-c1ccc(Cl)cc1
> 100 µM

Fill blank: measured TGI of the molecule CN(CC(=O)O)c1ncc2c(n1)CCCC2 is ____.
> 100 µM

# lookup: TGI of Cn1cc(NC(=O)Nc2cc(C(=O)Nc3cc(C(=O)Nc4ccc(S(=O)(=O)O)c5cc(S(=O)(=O)O)ccc45)n(C)c3)n(C)c2)cc1C(=O)Nc1cc(C(=O)Nc2ccc(S(=O)(=O)O)c3cc(S(=O)(=O)O)ccc23)n(C)c1
> 100 µM

Fill in the blank: the reported TGI of CN1CCOC(c2ccccc2)O1 (stereo not drawn) is ____.
> 100 µM

If you can, please state the reported TGI value of O=Cc1[nH]c(=O)[nH]c(=O)c1C(=O)O .
> 100 µM

Name the recorded TGI for O=C(c1ccccc1)c1cc2ccccc2o1 .
> 100 µM

I'd like to know its TGI. The molecule in question is CCC(C)COC(=O)c1ccc(N=Cc2ccc(C=Nc3ccc(C(=O)OCC(C)CC)cc3)cc2)cc1 (stereo not drawn)
> 100 µM

Request the reported TGI associated with CC1CCC(=O)C(C(=O)CC2CC(=O)N(C)C(=O)C2)C1 (stereo not drawn)
> 100 µM

Which TGI value belongs to CCCCCCOC(=O)/C=C/[C@]1(CO)C/C(=C/CC(C(C)C)C(C)C)C(=O)O1 ?
25.9 µM

Dear colleague, I am looking for the recorded TGI of the following molecule: CO/N=C(\COc1ccc2c(c1)oc(=O)c1cc(OC)ccc12)c1ccc(OC)cc1
> 100 µM

Returns the measured TGI for the input molecule. Input: C1CN2CCN3CCN4CCN1[P+]243
> 100 µM

# query: TGI of entry CC12CC(c3ccccc3O1)C(C(=O)Nc1ccc(Cl)cc1Cl)C(=O)N2 (stereo not drawn)
> 100 µM

Given the entry N#CC(C(=O)C(=O)C(C#N)c1ccc(Br)cc1)c1ccc(Br)cc1 (stereo not drawn) , report its measured TGI.
29.5 µM

What value of measured TGI is listed for NC(=O)C12CC3CC(CC(F)(C3)C1)C2 ?
> 100 µM

Report TGI for CCC[CH2][Sn]([Cl])([CH2]CCC)[CH2]CCC please.
0.188 µM
